Molecular target: 5HT2C receptors (Homo sapiens, UniProt P28335)
Sequence (P28335 33-458): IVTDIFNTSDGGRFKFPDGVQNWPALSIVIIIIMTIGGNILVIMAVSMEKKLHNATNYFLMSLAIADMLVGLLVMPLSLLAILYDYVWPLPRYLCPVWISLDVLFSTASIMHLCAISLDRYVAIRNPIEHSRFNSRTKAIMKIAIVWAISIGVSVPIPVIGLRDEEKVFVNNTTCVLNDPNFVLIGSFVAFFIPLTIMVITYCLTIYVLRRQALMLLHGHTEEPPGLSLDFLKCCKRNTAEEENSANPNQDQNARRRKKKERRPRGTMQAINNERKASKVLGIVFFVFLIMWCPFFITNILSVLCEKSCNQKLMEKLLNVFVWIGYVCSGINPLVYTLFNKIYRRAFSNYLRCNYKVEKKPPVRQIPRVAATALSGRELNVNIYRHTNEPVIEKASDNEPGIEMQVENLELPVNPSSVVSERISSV
Assay: PDSP (2005) functional activity of APTs at 5HT2C receptors
Conditions: preliminary data
Readout: EC50

Reported EC50 ( CN(C)C1CCc2c(cccc2-c2ccccc2)C1 (stereo not shown) [32 (5APT)] ) = ~80 nM

* * *

Molecular target: 5HT2C receptors (Homo sapiens, UniProt P28335)
Readout: Ki

Reported Ki ( CN(C)C1CCc2cc(-c3cccc(Br)c3)ccc2C1 (stereo not shown) ) = 540 nM

Reported Ki ( CN(C)C1CCc2c(cccc2-c2cccc(Cl)c2)C1 (stereo not shown) ) = ~220 nM

Reported Ki ( CN(C)C1CCc2c(cccc2-c2cccc(C(F)(F)F)c2)C1 (stereo not shown) ) = ~190 nM

Reported Ki ( CN(C)C1CCc2c(cccc2-c2ccccc2)C1 (stereo not shown) ) = 320 nM

Entry source: patent US9862674B2
